Data provenance: ChEMBL document CHEMBL1125211

Please go through the items and note down their IC50.
# system: UniProtKB Q72874
# assay.overview: Inhibitory activity against HIV Protease in peptide cleavage assay
One number for each entry, in nM.

Check out these entries, answers already filled in.
1) CC(C)[C@H](NC(=O)[C@H](Cc1ccccc1)C[C@H](O)[C@H](Cc1ccccc1)NC(=O)OC(C)(C)C)C(N)=O ... 1.1
2) CC(C)(C)OC(=O)N[C@@H](Cc1ccccc1)[C@@H](O)C[C@@H](Cc1ccccc1)C(=O)N[C@H](C(N)=O)C1CCCCC1 ... 5.2
3) CC(C)(C)OC(=O)N[C@@H](Cc1ccccc1)[C@@H](O)C[C@@H](Cc1ccccc1)C(=O)N[C@H](C(N)=O)c1ccccc1 ... 0.9
4) CCC(C)[C@H](NC(=O)[C@H](Cc1ccccc1)C[C@H](O)[C@H](Cc1ccccc1)NC(=O)OC(C)(C)C)C(=O)NCc1ccccc1 (stereo not given in full) ... 0.71
5) CC(C)C[C@H](NC(=O)[C@H](Cc1ccccc1)C[C@H](O)[C@H](Cc1ccccc1)NC(=O)OC(C)(C)C)C(=O)NCc1ccccc1 ... 1.4
6) CC(C)C[C@@H](NC(=O)[C@H](Cc1ccccc1)C[C@H](O)[C@H](Cc1ccccc1)NC(=O)OC(C)(C)C)C(N)=O ... 3100

Hey, quick one: what's IC50 for each of these?
1. CC(C)[C@H](NC(=O)[C@H](Cc1ccccc1)C[C@H](O)[C@H](Cc1ccccc1)NC(=O)OC(C)(C)C)C(=O)NCCCN(C)C
2. CCC(C)[C@H](NC(=O)[C@H](Cc1ccccc1)C[C@H](O)[C@H](Cc1ccccc1)NC(=O)OC(C)(C)C)C(N)=O (stereo not given in full)
3. CC(C)(C)OC(=O)N[C@@H](Cc1ccccc1)[C@@H](O)C[C@@H](Cc1ccccc1)C(=O)N[C@@H](CO)C(N)=O
4. CC(C)(C)OC(=O)N[C@@H](Cc1ccccc1)[C@@H](O)C[C@@H](Cc1ccccc1)C(=O)N[C@@H](Cc1ccccc1)C(N)=O

A)
1: 3.4; 2: 2.7; 3: 606; 4: 29

----------
# system: Human immunodeficiency virus type 1 protease (Human immunodeficiency virus 1, UniProt Q72874)
# assay.overview: Inhibitory activity against HIV protease in peptide cleavage assay
endpoint.name: pIC50
Numbers only, as −log10 of the molar value.

1. CCN(CC)CC(O)CNC(=O)[C@@H](NC(=O)[C@H](Cc1ccccc1)C[C@H](O)[C@H](Cc1ccccc1)NC(=O)OC(C)(C)C)C(C)C (some centres not stated) ... 8.20
2. CC(C)[C@H](NC(=O)[C@H](Cc1ccccc1)C[C@H](O)[C@H](Cc1ccccc1)NC(=O)OC(C)(C)C)C(=O)NCc1ccncc1 ... 9.21
3. CC(C)C[C@H](NC(=O)[C@H](Cc1ccccc1)C[C@H](O)[C@H](Cc1ccccc1)NC(=O)OC(C)(C)C)C(=O)NCCCN(C)C ... 7.64
4. CC(C)[C@H](NC(=O)[C@H](Cc1ccccc1)C[C@H](O)[C@H](Cc1ccccc1)NC(=O)OC(C)(C)C)C(=O)NCCO ... 9.36
5. CCC(C)[C@H](NC(=O)[C@H](Cc1ccccc1)C[C@H](O)[C@H](Cc1ccccc1)NC(=O)OC(C)(C)C)C(=O)NCc1ncc[nH]1 (some centres not stated) ... 9.06
6. CCC(C)[C@H](NC(=O)[C@H](Cc1ccccc1)C[C@H](O)[C@H](Cc1ccccc1)NC(=O)OC(C)(C)C)C(=O)NCCCN(C)C (some centres not stated) ... 8.10

Now look at this entry.
Q) Need pIC50 of CN(C)CCCNC(=O)[C@@H](NC(=O)[C@H](Cc1ccccc1)C[C@H](O)[C@H](Cc1ccccc1)NC(=O)OC(C)(C)C)c1ccccc1 , thanks.
A) 7.59

----------
# system: Human immunodeficiency virus type 1 protease (Human immunodeficiency virus 1, UniProt Q72874)
# assay.overview: Inhibitory activity against HIV protease in peptide cleavage assay
Define the label as label 1 when IC50 is strictly less than 2 nM and as label 0 in all remaining cases.

Q) For this molecule, is IC50 lower than 2 nM? CC(C)C[C@H](NC(=O)[C@H](Cc1ccccc1)C[C@H](O)[C@H](Cc1ccccc1)NC(=O)OC(C)(C)C)C(=O)NCCO
A) label 0

Q) For this molecule, is IC50 lower than 2 nM? CC(C)[C@H](NC(=O)[C@H](Cc1ccccc1)C[C@H](O)[C@H](Cc1ccccc1)NC(=O)OC(C)(C)C)C(=O)NCc1ccccc1
A) label 1

Q) For this molecule, is IC50 lower than 2 nM? CCC(C)[C@H](NC(=O)[C@H](Cc1ccccc1)C[C@H](O)[C@H](Cc1ccccc1)NC(=O)OC(C)(C)C)C(=O)NCCN(C)C (some centres not stated)
A) label 0

Q) For this molecule, is IC50 lower than 2 nM? CNCCNC(=O)[C@@H](NC(=O)[C@H](Cc1ccccc1)C[C@H](O)[C@H](Cc1ccccc1)NC(=O)OC(C)(C)C)C(C)C
A) label 1

Q) For this molecule, is IC50 lower than 2 nM? CCC(C)[C@H](NC(=O)[C@H](Cc1ccccc1)C[C@H](O)[C@H](Cc1ccccc1)NC(=O)OC(C)(C)C)C(=O)NCc1ccccn1 (some centres not stated)
A) label 1

Q) For this molecule, is IC50 lower than 2 nM? CC(C)[C@H](NC(=O)[C@H](Cc1ccccc1)C[C@H](O)[C@H](Cc1ccccc1)NC(=O)OC(C)(C)C)C(=O)NCC(O)CO (some centres not stated)
A) label 1

Q) For this molecule, is IC50 lower than 2 nM? CC(C)C[C@H](NC(=O)[C@H](Cc1ccccc1)C[C@H](O)[C@H](Cc1ccccc1)NC(=O)OC(C)(C)C)C(=O)NC(CO)Cc1ccccc1 (some centres not stated)
A) label 1

----------
Please go through the items and note down their IC50.
# system: Human immunodeficiency virus type 1 protease (Human immunodeficiency virus 1, UniProt Q72874)
# assay.overview: Inhibitory activity against HIV protease in peptide cleavage assay
Give bare numbers, in nM.

1. CC(C)[C@H](NC(=O)[C@H](Cc1ccccc1)C[C@H](O)[C@H](Cc1ccccc1)NC(=O)OC(C)(C)C)C(=O)NCCCN1CCOCC1 ... 2.9
2. CC(C)(C)OC(=O)N[C@@H](Cc1ccccc1)[C@@H](O)C[C@@H](Cc1ccccc1)C(=O)N[C@@H](Cc1ncc[nH]1)C(N)=O ... 770
3. CC(C)(C)OC(=O)N[C@@H](Cc1ccccc1)[C@@H](O)C[C@@H](Cc1ccccc1)C(=O)N[C@H](C(=O)NCc1ccccc1)c1ccccc1 ... 5.8
4. CC(C)(C)OC(=O)N[C@@H](Cc1ccccc1)[C@@H](O)C[C@@H](Cc1ccccc1)C(=O)N[C@@H](Cc1cc2ccccc2[nH]1)C(N)=O ... 60
5. CC(C)[C@H](NC(=O)[C@H](Cc1ccccc1)C[C@H](O)[C@H](Cc1ccccc1)NC(=O)OC(C)(C)C)C(=O)NCc1ccccn1 ... 0.75

Now look at this entry.
Q) Need IC50 of CC(C)(C)OC(=O)N[C@@H](Cc1ccccc1)[C@@H](O)C[C@@H](Cc1ccccc1)C(=O)N[C@H](C(=O)NCc1nc2ccccc2[nH]1)c1ccccc1 , thanks.
A) 0.07

----------
# system: Human immunodeficiency virus type 1 protease (Human immunodeficiency virus 1, UniProt Q72874)
# assay.overview: Inhibitory activity against HIV Protease in peptide cleavage assay
Define the label as Yes when IC50 is strictly less than 7 nM and as No in all remaining cases.

1. CC(C)C[C@H](NC(=O)[C@H](Cc1ccccc1)C[C@H](O)[C@H](Cc1ccccc1)NC(=O)OC(C)(C)C)C(N)=O ... No

Q) For this molecule, is IC50 lower than 7 nM? CC[C@H](C)[C@H](NC(=O)[C@H](Cc1ccccc1)C[C@H](O)[C@H](Cc1ccccc1)NC(=O)OC(C)(C)C)C(=O)NC(=O)C(N)Cc1ccccc1 (stereo not given in full)
A) Yes

Q) For this molecule, is IC50 lower than 7 nM? CC(C)(C)OC(=O)N[C@@H](Cc1ccccc1)[C@@H](O)C[C@@H](Cc1ccccc1)C(=O)NCC(N)=O
A) No

Q) For this molecule, is IC50 lower than 7 nM? CC(C)(C)OC(=O)N[C@@H](Cc1ccccc1)[C@@H](O)C[C@@H](Cc1ccccc1)C(=O)N[C@@H](CC1CCCCC1)C(N)=O
A) No
